# System: Italian ryegrass (Lolium mutiflorum)
# MEASUREMENT DESCRIPTION: Test C postemergence, visual plant response rating
# Type: in vivo
# TEST SETTINGS: Postemergence, 31 g ai/ha
MEASURED ATTRIBUTE: Ryegrass, Italian plant response rating (0 to 100 scale)
Answer with a number only.

> print(dat)
                                   compound  result.value
1  CCO/N=C(/c1c(O)c(C)nn(C)c1=O)c1cccc2cc(Cl)ccc12             0

input: Field request: Ryegrass, Italian plant response rating (0 to 100 scale) | item: `CO/N=C(\c1ccc(F)c(Cl)c1)c1c(O)c(C)nn(C)c1=O`
output: 0

input: Try CCON=C(c1cc(Cl)cc(Br)c1)c1c(O)c(C)nn(C)c1=O [Compound 180] next.
output: 70

---

# System: blackgrass (Alopecurus myosuroides)
# MEASUREMENT DESCRIPTION: Test C postemergence, visual plant response rating
# Format: in vivo
# TEST SETTINGS: Postemergence, 31 g ai/ha
# Blackgrass plant response rating (0 to 100 scale) per entry

The following compounds have reported results that may help.
> print(dat)
                                   compound                      target.of.assay  result.value
1  CON=C(c1cccc(OC)c1)c1c(O)c(C)nn(C)c1=O [Compound 204]  blackgrass (Alopecurus myosuroides)             0
2  CO/N=C(/c1cccc(/C=C/Cl)c1)c1c(O)c(C)nn(C)c1=O [Compound 285]  blackgrass (Alopecurus myosuroides)             0
3  CON=C(c1ccc(F)c(Br)c1)c1c(O)c(C)nn(C)c1=O [Compound 177]  blackgrass (Alopecurus myosuroides)             0
4  C#CCON=C(c1ccc(Cl)c(Cl)c1)c1c(O)c(C)nn(C)c1=O [Compound 178]  blackgrass (Alopecurus myosuroides)             0
5  C=CCO/N=C(/c1c(O)c(C)nn(C)c1=O)c1cccc2cc(Cl)ccc12 [Compound 246]  blackgrass (Alopecurus myosuroides)            50
6  CO/N=C(/c1cc(F)cc(F)c1C)c1c(O)c(C)nn(C)c1=O [Compound 305]  blackgrass (Alopecurus myosuroides)            10
7  C#CCO/N=C(/c1cccc(Br)c1)c1c(O)c(C)nn(C)c1=O [Compound 277]  blackgrass (Alopecurus myosuroides)            30
8  CO/N=C(/c1cc(Cl)cc(OC)c1)c1c(O)c(C)nn(C)c1=O [Compound 165]  blackgrass (Alopecurus myosuroides)            20

input: Field request: Blackgrass plant response rating (0 to 100 scale) | item: Cc1nn(C)c(=O)c(C(=NOC(C)C)c2cc(Cl)cc(Cl)c2F)c1O [Compound 167]
output: 80

---

# Test system: Italian ryegrass (Lolium mutiflorum)
# MEASUREMENT DESCRIPTION: Test C preemergence, visual plant response rating
# Assay type: in vivo
# TEST SETTINGS: Test C, 125 g ai/ha, 0 is no effect, 100 is complete control
# Excerpt: […]
# Ryegrass, Italian plant response rating (0 to 100 scale) per entry
Answer with a number only.

The following compounds have reported results that may help.
> print(dat)
                           smiles.structure  result.value
1  C=CCO/N=C(\c1c(O)c(C)nn(C)c1=O)c1cccc2cc(Cl)ccc12            20
2  CO/N=C(/c1cc(Cl)c(F)c(Cl)c1)c1c(O)c(C)nn(C)c1=O            30

input: Field request: Ryegrass, Italian plant response rating (0 to 100 scale) | item: `CO/N=C(/c1c(O)cnn(C)c1=O)c1ccc(F)c2ccccc12`
output: 20

input: Try `CO/N=C(/c1ccc(F)c(Cl)c1)c1c(O)c(C)nn(C)c1=O` next.
output: 10

input: Try `CO/N=C(\c1cc(F)cc(C)c1F)c1c(O)c(C)nn(C)c1=O` next.
output: 80

input: Try `Cc1nn(C)c(=O)c(C(=NOCC2CC2)c2cc(Cl)cc(Cl)c2Cl)c1O` next.
output: 100

input: Try `CO/N=C(\c1c(O)c(Cl)nn(C)c1=O)c1ccc(F)c2ccccc12` next.
output: 70

input: Try `C#CCO/N=C(\c1ccc(F)c(Cl)c1)c1c(O)c(C)nn(C)c1=O` next.
output: 10

input: Try `CO/N=C(\c1c(O)c(C)nn(C)c1=O)c1cccc2cc(Cl)ccc12` next.
output: 70

input: Try `C#CCO/N=C(/c1c(O)c(C)nn(C)c1=O)c1cc(Cl)cc2ccccc12` next.
output: 70

input: Try `CO/N=C(/c1cccc(/C=C\Cl)c1)c1c(O)c(C)nn(C)c1=O` next.
output: 90

input: Try `CO/N=C(\c1cccc(Br)c1)c1c(O)c(C)nn(C)c1=O` next.
output: 50

input: Try `CCO/N=C(/c1c(O)cnn(C)c1=O)c1ccc(F)c2ccccc12` next.
output: 10

input: Try `CON=C(c1cc(Cl)cc(Cl)c1F)c1c(O)c(C)nn(C)c1=O` next.
output: 100

input: Try `CCO/N=C(\c1c(O)cnn(C)c1=O)c1ccc(F)c2ccccc12` next.
output: 10

input: Try `CO/N=C(/c1c(O)c(Cl)nn(C)c1=O)c1ccc(F)c2ccccc12` next.
output: 80

input: Try `CON=C(c1cccc(OC)c1)c1c(O)c(C)nn(C)c1=O` next.
output: 0

input: Try `CC(C)O/N=C(/c1c(O)c(Cl)nn(C)c1=O)c1cc(Br)cc2ccccc12` next.
output: 0

Where these numbers come from: patent US20210045385A1
